- system.name: T1, K280-ac protein fragment (human)
- T1 construct: also called mAC
- T1 peptide: VQIINK(Ac)KLDLSN
- procedure.text: ELISA on K280-ac coated at 250 ng/well, HRP anti-human IgG
Ends that are not written are not given here.
Values of Absorbance at 450nm at 0.25ug/well greater than or equal to 1 map to met; values below map to not met.

QUERY: Is the recorded value of Absorbance at 450nm at 0.25ug/well equal to or greater than 1 for this binder? v12 (antibody, V domains shown, also called Y01h01v12; ADEL-Y01h v12 antibody) VH: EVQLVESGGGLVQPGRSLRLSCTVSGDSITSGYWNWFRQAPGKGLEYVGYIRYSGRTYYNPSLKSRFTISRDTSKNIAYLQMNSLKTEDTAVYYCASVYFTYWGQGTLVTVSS VL: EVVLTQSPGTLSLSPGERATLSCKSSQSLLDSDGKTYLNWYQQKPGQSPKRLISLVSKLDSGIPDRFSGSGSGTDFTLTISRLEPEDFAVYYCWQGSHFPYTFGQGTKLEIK
RESULT: met

QUERY: Determine whether this binder has Absorbance at 450nm at 0.25ug/well no lower than 1: ADEL-Y01h v02 antibody (antibody, V domains shown, Humanized antibody; It was detected with anti-human IgG; also called Y01h01v02) VH: EVQLQESGPGLVKPSQTLSLTCTVSGDSITSGYWNWIRQPPGKGLEYIGYIRYSGRTYYNPSLKSRVTISRDTSKNQFSLKLSSVTAADTAVYYCASVYFTYWGQGTLVTVSS VL: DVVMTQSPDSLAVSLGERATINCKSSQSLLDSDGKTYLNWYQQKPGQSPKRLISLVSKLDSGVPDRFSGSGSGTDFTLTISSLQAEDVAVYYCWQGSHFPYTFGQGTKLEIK
RESULT: met

QUERY: Tell me whether Absorbance at 450nm at 0.25ug/well is at least 1 here: ADEL-Y01h v04 antibody (antibody, V domains shown, Humanized antibody; It was detected with anti-human IgG; also called Y01h01v04) VH: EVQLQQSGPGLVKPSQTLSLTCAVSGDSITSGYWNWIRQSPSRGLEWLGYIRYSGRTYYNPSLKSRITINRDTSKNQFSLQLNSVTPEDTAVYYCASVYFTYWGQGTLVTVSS VL: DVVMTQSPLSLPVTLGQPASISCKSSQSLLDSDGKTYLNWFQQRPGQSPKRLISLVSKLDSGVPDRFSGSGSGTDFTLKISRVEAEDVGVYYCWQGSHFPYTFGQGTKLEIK
RESULT: met

QUERY: Record ADEL-Y01h v06 antibody (antibody, V domains shown, Humanized antibody; It was detected with anti-human IgG; also called Y01h01v06) VH: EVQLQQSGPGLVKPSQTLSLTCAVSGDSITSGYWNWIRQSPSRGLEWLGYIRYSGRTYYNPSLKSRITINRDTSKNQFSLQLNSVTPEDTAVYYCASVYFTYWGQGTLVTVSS VL: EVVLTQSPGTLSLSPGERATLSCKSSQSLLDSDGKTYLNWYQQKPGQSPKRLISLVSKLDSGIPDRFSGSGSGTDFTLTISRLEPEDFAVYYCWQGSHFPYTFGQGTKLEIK ; criterion: Absorbance at 450nm at 0.25ug/well no lower than 1. Met?
RESULT: met

QUERY: Check this binder for Absorbance at 450nm at 0.25ug/well at or above 1: ADEL-Y01h v08 antibody (antibody, V domains shown, Humanized antibody; It was detected with anti-human IgG; also called Y01h01v08) VH: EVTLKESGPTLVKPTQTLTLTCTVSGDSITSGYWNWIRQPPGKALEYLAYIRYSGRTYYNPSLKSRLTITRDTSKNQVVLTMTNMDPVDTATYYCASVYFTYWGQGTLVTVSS VL: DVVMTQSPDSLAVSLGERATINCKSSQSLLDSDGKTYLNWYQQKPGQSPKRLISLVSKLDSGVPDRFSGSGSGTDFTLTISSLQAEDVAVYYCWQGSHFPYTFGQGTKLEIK
RESULT: not met

Cited source: patent US20220204601A1
